- Tested on: MDA-N
- PROTOCOL: NCI tumour cell line growth inhibition, 48 h
In this section we review reported TGI values for a set of compounds.

Reported TGI, compound "CC(=NCC(=O)O)c1ccccc1" : ____ > 100 µM

Follow-up item: "NN/C(=N\S(=O)(=O)c1ccc(-c2ccccn2)s1)Nc1ccc(Cl)cc1" > 100 µM

Follow-up item: "COc1ccccc1-c1cc(=O)c2ccccc2n1C1CC1" 18 µM

Follow-up item: CCC1([N+](=O)[O-])CC2C=CC1C2 (configuration not stated) > 100 µM

Follow-up item: NC(Cc1c[nH]c2ccccc12)P(=O)(O)O (configuration not stated) > 100 µM

Follow-up item: "O=C(O)COc1cc(-c2ccccc2)nc2ccc(F)cc12" > 100 µM

Follow-up item: "COC(=O)c1ccc(NC(=O)c2cc3c(cc2Br)OCO3)o1" > 100 µM

Follow-up item: "COc1ccc(OC)c(NC(=O)c2c(Cl)c(Cl)c(Cl)c(Cl)c2-c2nc3ccccc3[nH]2)c1" > 100 µM

Follow-up item: "CN(C)c1ccc(/C=N/N=C2\C(=O)Nc3c(Cl)cc(Cl)cc32)cc1" 33.8 µM

---

In this section we review reported TGI values for a set of compounds.
- Tested on: MDA-N
- PROTOCOL: NCI tumour cell line growth inhibition, 48 h
Give your result in µM as a bare value.

- CHEM SMILES: "CC1=C[C@H](O)[C@@]2(C)[C@@H]([C@@H]1C)[C@H]1CC[C@@H]3[C@@]4(C)CC[C@H](O)C(C)(C)[C@@H]4CC[C@@]3(C)[C@]1(C)C[C@@H]2O"
  UNIT ANNOTATION: "µM"
  TGI: 29.7

Next item in the queue.
Reported TGI, compound "O=c1oc2ccc(Cl)cc2cc1C1=CSC2=NCCN12" : ____ 47.4

---

- Tested on: CAKI-1 renal
- PROTOCOL: NCI tumour cell line growth inhibition, 48 h; in the data active means GI50 below about 0.43 µM; inactive means the rest
*1 amine or outer side, *2 acyl side, *3 side chain or, on linkers, in order; H or OH if unused. Where a SMILES comes first, the peptide text is derived from it. Bridges are numbered along the chain shown (N, C = ends). [ ]: non-standard residue; d: D form. The star is where a group is joined. Phe(3,5-F2) = N[C@@H](Cc1cc(F)cc(F)c1)C(=O)O; Pro(4R-Me) = C[C@H]1CN[C@H](C(=O)O)C1; aThr = C[C@H](O)[C@H](N)C(=O)O; Pip = O=C(O)[C@@H]1CCCCN1; X10 = Fc1cc(C2CC2)ccc1N*; Abu = CC[C@H](N)C(=O)O; CO = O=C([*:1])[*:2]
# valid calls are TRUE (active), FALSE (inactive); nothing else

Some solved cases for reference:
- COMPOUND: "c1ccc(CSc2nnc3c4c5c(sc4nc(-c4cccnc4)n23)CCCCCC5)cc1"
  CLASS NAME: "FALSE"
- COMPOUND: "COc1ccc2c(c1OC)CO[C@@H]2[C@H]1c2c(c(Br)c3c(c2OC)OCO3)CCN1C"
  CLASS NAME: "FALSE"
- COMPOUND: "CC(=O)OC1Oc2ccc(C)cc2-c2oc(=O)c(-c3cc4ccccc4oc3=O)cc21 (centres undefined)"
  CLASS NAME: "FALSE"
- COMPOUND: "CC[C@@H]1NC(=O)[C@@H]2CCCCN2C(=O)[C@@H]2CCCN2C(=O)[C@@H](NC(=O)[C@H](Cc2cc(F)cc(F)c2)NC(=O)Nc2ccc(C3CC3)cc2F)[C@H](C)OC(=O)[C@@H]2C[C@@H](C)CN2C1=O ({X10-CO}-[Phe(3,5-F2)][aThr]P[Pip][Abu][Pro(4R-Me)]; ester 2-C)"
  CLASS NAME: "TRUE"

// switching to the query compound
Recorded test call requested for COc1cc(OC)cc(C2C(C#N)=C(N)Oc3c2ccc2ccc(O)cc32)c1 (centres undefined) TRUE

---

In this section we review reported TGI values for a set of compounds.
- Tested on: HCC-2998 colon
- PROTOCOL: NCI tumour cell line growth inhibition, 48 h

- COMPOUND: "C/C(CC(=O)Nc1ccc(C)c(C)c1)=N\\NC(N)=S"
  TGI: "> 100 µM"

Reported TGI, compound "O=[N+]([O-])c1ccc(N=Nc2c(O)[nH]c3ccc(Br)cc23)cc1" : ____ > 100 µM

Follow-up item: "CN(C)CCNC(=O)c1cnn(C)c1[N+](=O)[O-]" > 100 µM

Follow-up item: "CC(C)(C)OC(=O)NCCCCCCC(=O)Cc1ccccc1" > 100 µM

Follow-up item: "c1cc2sc1CSCCSCCSC2" > 100 µM

Follow-up item: "c1ccc(CSc2nnc3c4c5c(sc4nc(-c4cccnc4)n23)CCCCCC5)cc1" 15.3 µM

Follow-up item: "COc1ccc2[nH]c(C(O)(Cc3cccnc3)Cc3cccnc3)cc2c1" > 100 µM

Follow-up item: "O=[N+]([O-])c1cccc(-c2ncnc(-c3cccc([N+](=O)[O-])c3)n2)c1" > 100 µM

---

- System: RXF 393 renal
- PROTOCOL: NCI tumour cell line growth inhibition, 48 h
QUANTITY MEASURED: TGI (µM)
Give your result in µM as a bare value.

Before answering, review these 3 worked examples.
- COMPOUND: "O=[N+]([O-])c1cccc(-c2ncnc(-c3cccc([N+](=O)[O-])c3)n2)c1"
  TGI (µM): 62.8
- COMPOUND: "COc1ccc2c(c1OC)CO[C@@H]2[C@H]1c2c(c(Br)c3c(c2OC)OCO3)CCN1C"
  TGI (µM): 29.8
- COMPOUND: "CSc1nc(SC)c2cnn(CC3CO3)c2n1 (centres undefined)"
  TGI (µM): 34

Reported TGI, compound COc1ccc(C(O)c2cc3c(N)c(C(=O)Nc4cccc(OC)c4)sc3nc2C)cc1 (centres undefined) : ____ 2.31

Follow-up item: "O=[N+]([O-])c1ccc(N=Nc2c(O)[nH]c3ccc(Br)cc23)cc1" 35.6

Follow-up item: "O=C(CNc1c(Cl)cccc1Cl)Nc1ccc(-c2nc3ccccc3s2)cc1" 9.73

Follow-up item: "Fc1ccc(-c2nnc3sc(-c4cc(Cl)cc(Cl)c4)nn23)cc1Cl" 26.4

---

- Tested on: MDA-MB-231 breast
- PROTOCOL: NCI tumour cell line growth inhibition, 48 h; in the data active = GI50 below about 0.43 µM; inactive = the rest
# valid calls are active, inactive; nothing else

Some solved cases for reference:
- MOLECULE: "ClC1=C(Cl)C(Cl)=C(Cl)C1=Cc1ccccc1"
  CLASS NAME: "inactive"
- MOLECULE: "CCN(CC)c1ccc2c(cc1=O)[C@@H](NC(C)=O)CCc1cc(OC)c(OC)c(OC)c1-2"
  CLASS NAME: "inactive"
- MOLECULE: "Oc1c(Cl)cc(Cl)c2ccc(Cn3cc(-c4cc(F)cc(F)c4)nn3)nc12"
  CLASS NAME: "inactive"
- MOLECULE: "O=C(O)c1sccc1O"
  CLASS NAME: "inactive"
- MOLECULE: "COc1ccc(F)cc1/C=C/C(=O)/C=C(/C=C/c1cc(F)ccc1OC)OB(F)F"
  CLASS NAME: "inactive"
- MOLECULE: "CC1SC(c2ccc(Cl)c(Cl)c2)N(NC(=O)C(O)c2ccccc2)C1=O (stereo not drawn)"
  CLASS NAME: "inactive"
- MOLECULE: "Fc1ccc(-c2nnc3sc(-c4cc(Cl)cc(Cl)c4)nn23)cc1Cl"
  CLASS NAME: "inactive"
- MOLECULE: "CC/C=C\\C/C=C\\C[C@H]1C/C=C2/C(=O)C=C[C@@H]2C/C=C\\CCC(=O)O1"
  CLASS NAME: "inactive"

Recorded test call requested for "COc1ccc(CN2C(=O)C(Cl)=C(Nc3cccc(O)c3)C2=O)cc1" inactive

Follow-up item: "O=C1Nc2ccccc2C1(c1c[nH]c2ccccc12)c1c[nH]c2ccccc12" inactive

Follow-up item: "O=C(Nc1ccc(Oc2cccc(Cl)c2)c(Cl)c1)c1cnccn1" inactive

Follow-up item: "COc1cc2c(cc1OCCCCCN1CCN(c3cc(=O)oc4ccccc34)CC1)N=C[C@@H]1CCCN1C2=O" active

Follow-up item: "Cc1cccc(NC2=C(Cl)C(=O)N(Cc3ccc(Cl)cc3)C2=O)c1" inactive

---

- Test system: SF-539 CNS
- PROTOCOL: NCI tumour cell line growth inhibition, 48 h; in the data active means GI50 below about 0.43 µM; inactive means the rest
# valid calls are active, inactive; nothing else

Some solved cases for reference:
- COMPOUND: "COc1cnc2c(c1)C(=O)c1c-2n(CCCBr)c(=O)c2cc([N+](=O)[O-])ccc12"
  CLASS NAME: "active"
- COMPOUND: "CCN(CC)c1ccc2c(cc1=O)[C@@H](NC(C)=O)CCc1cc(OC)c(OC)c(OC)c1-2"
  CLASS NAME: "active"
- COMPOUND: "O=C(CNc1c(Cl)cccc1Cl)Nc1ccc(-c2nc3ccccc3s2)cc1"
  CLASS NAME: "inactive"
- COMPOUND: "Oc1c(Cl)cc(Cl)c2ccc(Cn3cc(-c4cc(F)cc(F)c4)nn3)nc12"
  CLASS NAME: "inactive"
- COMPOUND: "Cc1cc(I)cc(CN(C)CCN2CCOCC2)c1O"
  CLASS NAME: "inactive"

// switching to the query compound
Recorded test call requested for "COc1cc2c(cc1OCCCNC(=O)/C=C1/C[C@H]3C=Nc4cc(OCc5ccccc5)c(OC)cc4C(=O)N3C1)NC(=O)[C@@H]1CCCN1C2=O" inactive
